target or system: T1, nSR100 (Mus musculus, UniProt Q8BKA3)
T1 construct: host or cells: mouse N2A cells
T1 sequence (Q8BKA3 1-608): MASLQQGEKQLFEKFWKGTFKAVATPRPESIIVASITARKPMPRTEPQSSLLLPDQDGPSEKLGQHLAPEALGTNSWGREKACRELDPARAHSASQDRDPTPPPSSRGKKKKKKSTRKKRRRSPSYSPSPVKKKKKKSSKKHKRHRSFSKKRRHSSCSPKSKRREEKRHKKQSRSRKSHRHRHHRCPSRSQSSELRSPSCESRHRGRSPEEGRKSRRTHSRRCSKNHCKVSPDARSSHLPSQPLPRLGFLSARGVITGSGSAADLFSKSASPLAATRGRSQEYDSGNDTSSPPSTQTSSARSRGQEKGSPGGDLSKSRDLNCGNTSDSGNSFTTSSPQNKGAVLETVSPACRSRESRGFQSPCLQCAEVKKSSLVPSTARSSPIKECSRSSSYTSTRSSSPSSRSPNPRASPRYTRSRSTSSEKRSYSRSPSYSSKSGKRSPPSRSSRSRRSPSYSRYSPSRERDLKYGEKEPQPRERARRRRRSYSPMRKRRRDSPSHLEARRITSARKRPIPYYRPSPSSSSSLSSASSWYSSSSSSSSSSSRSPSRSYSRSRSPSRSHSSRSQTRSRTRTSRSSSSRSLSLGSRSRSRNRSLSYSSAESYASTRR
assay comment: AP-MS nSR100 interaction partners from mouse N2A cells (Table 5)
Format: binding
experimental parameters: bait Srrm4
Please go through the items and note down their AvgP (average of the SAINT scores).
Give the figure only, with no unit attached.

Identify AvgP (average of the SAINT scores) associated with the molecule Grpel1 (protein, UniProt Q99LP6 28-217, looked up) GrpE protein homolog 1, …: CTATKQKNNGQNLDEDLGHCEPKTDPPSADKTLLEEKAKLEEQLRETMEKYKRALADTENLRQRSQKLVEEAKLYGIQGFCKDLLEVADILEKATQSVPKEEISNNNPHLKSLYEGLVMTEVQIQKVFTKHGLLRLDPIGAKFDPYEHEALFHTPVEGKEPGTVALVSKVGYKLHGRTLRPALVGVVKDA
0.97

Identify AvgP (average of the SAINT scores) associated with the molecule Snip1 (protein, UniProt Q8BIZ6 1-383, looked up) Smad nuclear-interacting …: MKAGKSERERSGRRRHRSGDALTTVVVKQERLSPEPVAHRRPDAPAASLSPPAAEPGHSGHRGSRARSPAKKKSKSSGRRSKSPRTKRSQSPHYPMVKVKQEREDHPRRGREDRQHREPSEQEHRRARNSERDRHRGHSRQGRSSDERPVSGQDRDRDSQNLQAQEEERDFHNARRREHRQQNESAGSEAQEVIPRPAGNRSKEVPVKEKPSFELSGALLEDTNTFRGVVIKYSEPPEARIPKKRWRLYPFKNDEVLPVMYIHRQSAYLLGRHRRIADIPIDHPSCSKQHAVFQYRLVEYTRADGTVGRRVKPYIIDLGSGNGTFLNNKRIEPQRYYELKEKDVLKFGFSSREYVLLHESSDTSELDRKEDEDDEEEEMVSDS
1

Identify AvgP (average of the SAINT scores) associated with the molecule Rbmx2 (protein, UniProt Q8R0F5 1-326, looked up) RNA-binding motif protein, …: MNPLTKVKLINELNEREVQLGVAEKVSWHSEYKHSAWIFVGGLPYELTEGDIICVFSQYGEIVNINLVRDKKTGKSKGFCFLCYEDQRSTVLAVDNFNGIKIKGRTIRVDHVSNYRAPQESEDVDDVTRELQEKGCGVKTPPSSPPEVSEDEDAKLTKKHKKDKKEKKKRKKEKTEGQAQAEQPSCSRSATVKEKKDERASRKHSSKTSERAQKSEHRESKKSHSGSPDGRSSYHARAEDPECKARKEKPKHEHKSASRREAEEKSRERERGRSSGTHSGRHRGHSDGRSHRSRSRSRSPDKSHRHKKYRHSRERDSYHGSDRRHH
0.96

The measured values listed here are drawn from patent US10772928B2.
